target: Protein RecA (Mycobacterium tuberculosis (strain ATCC 25618 / H37Rv)); experiment: Mtb RecA intein splicing inhibitors, primary screen, biochemical, fluorescence, HTS (AID 2221); conditions: cell-free RecA intein splicing, active compounds read high, concentration not given here;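 note: 0% = vehicle wells and 100% = reference inhibitor control wells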
Hit rate of the full screen: of about 290,000 compounds, about 2,200 (0.76%) were called active. The sample holds actives, similar compounds and a random draw of the others, so the mix is not that of the screen.
reported_property: inhibition (%)
Reply with just the number (in %).

Request: Which value of inhibition has been reported for Cn1c2c(c(=O)n(C)c1=O)C(c1cccc(F)c1)C(C#N)=C(N)O2 (stereo not drawn) in the records?
Response: -1.55

Request: Now give it for CCOc1ccccc1Nc1ccc2nonc2c1[N+](=O)[O-] too.
Response: 2.95

Request: What about this compound? Cc1cccc(NC(=S)Nc2ccc3cn[nH]c3c2)c1
Response: 3.44

Request: Moving on to the next compound: O=C(Cc1ccccc1)Nc1cccc(NC(=O)c2ccccc2)c1
Response: -3.56

Request: Also, Cc1cccc(NC(=O)NC(=S)NC(=O)c2ccccc2)c1 please.
Response: 1.58

Request: Subsequent entry: Cc1nn(Cc2ccccc2)c(C)c1NS(=O)(=O)c1ccccc1
Response: 1.17

Request: Do the same for CCN(CC)CC(=O)Nc1sc2c(c1C(=O)c1ccccc1C)CCC2 please
Response: 11.9

Request: Similarly, Cc1nnc(SCC(=O)N2CCOCC2)[nH]c1=O ?
Response: -0.0115

Request: Another: Cc1cc2[nH]ncc2cc1NC(=S)NC(=O)c1ccccc1
Response: 38.6

Request: And what about the compound CCOC(=O)c1sc(NC(=O)CCN2CCOCC2)c(C(=O)OCC)c1C ?
Response: 2.17

Request: For CC(CNc1ccc([N+](=O)[O-])c2cccnc12)Nc1c([N+](=O)[O-])cc(C(F)(F)F)cc1[N+](=O)[O-] (stereo not drawn) then?
Response: 1.36

Request: Next: COc1ccccc1C1C(C#N)=C(N)Oc2c1c(-c1ccccc1)nn2-c1ccccc1 (stereo not drawn)
Response: 35.8

Request: Item: CC(Oc1cc2oc(=O)c3c(c2cc1Cl)CCCC3)C(=O)NCc1ccncc1 (stereo not drawn)
Response: 0.148

Request: One more compound: CCCCOC(=O)CNc1nnc(SCC(=O)OCC)[nH]c1=O
Response: 77.5

Request: # repeat for NC(=O)C1CCN(C(=O)c2ccc(-c3ccccc3)cc2)CC1
Response: -3.02

Request: Also need O=C1Nc2cc(C(=O)N3CCC(N4CCCCC4)CC3)ccc2S/C1=C\c1ccccc1 , thanks.
Response: 1.2

Request: Also, COc1cc(C(=S)N2CCOCC2)cc(OC)c1OC(=O)c1cc([N+](=O)[O-])cc([N+](=O)[O-])c1 please.
Response: -0.59

Request: Now the same for COc1ccc(-c2nnc(SCc3cccnc3)o2)cc1
Response: -3.4

Request: Same read-out for COC(=O)C1=C(C)OC(N)=C(C#N)C1c1cc(OC)ccc1OC (stereo not drawn) ?
Response: -1.82

Request: Would you kindly repeat that for O=C(CN1C(=O)C2C3C=CC(C3)C2C1=O)Nc1nc(-c2ccccn2)cs1 (stereo not drawn) ?
Response: -1.82

Request: Please give the result for O=C(O)c1cccc(S(=O)(=O)Nc2ccc(O)cc2Sc2nc3ccccc3s2)c1 too.
Response: -3.82

Request: Same question, Cc1cc(C)c2c3c(sc2n1)C(c1ccccc1)C(C#N)=C(N)O3 (stereo not drawn) this time
Response: -1.99

Request: One more compound: COc1ccc(C(=O)NCCSc2ccccc2C)cc1
Response: 3.07

Request: Also O=C(COc1coc(CN2CCN(c3ccccc3F)CC2)cc1=O)N1CCc2ccccc21 , if possible.
Response: -2.58

Request: Also CCCc1cc(=O)oc2c(C)c(OCC(=O)Nc3ccccn3)ccc12 , if possible.
Response: 0.212

Request: Also CCOC(=O)Nc1sc(C(=O)N(C)C)c(C)c1C(=O)OCC ?
Response: 1.54

Request: Next up: O=C(Oc1ccc(Br)cc1C(=S)N1CCOCC1)c1cccc([N+](=O)[O-])c1
Response: 32.3

Request: Follow-up item: Cc1cc(C)n2nc(CNS(=O)(=O)c3c(F)c(F)c(F)c(F)c3F)nc2n1
Response: 33

Request: Now the compound COc1cccc(NC(=O)CN(C)C(=O)c2ccccc2CCc2ccccc2)c1
Response: 5.79

Request: Another: COc1ccc(-c2nnc(SCC(=O)c3ccc4c(c3)OCCO4)o2)cc1
Response: 0.107

Request: Next compound: Cc1ccc(NC(=O)N2CCSc3ccccc32)cc1
Response: -0.155

Request: Then this compound: CCCCCCNS(=O)(=O)c1ccccc1Br
Response: 8.15

Request: Try this compound too: O=C(CCNS(=O)(=O)c1cccs1)N1CCN(c2ccc(F)cc2)CC1
Response: -0.494

Request: Same for CCOC(=O)CSc1nc(C)c(Oc2ccc(Cl)cc2Cl)c(=O)[nH]1
Response: 1.85

Request: Lookup O=C(CCl)Nc1cccc(CP(=O)(c2ccccc2)c2ccccc2)c1
Response: 35.8

Request: Now this one: Cc1c(Cl)cccc1NC(=O)CCC(=O)N/N=C/c1ccco1
Response: -1.26

Request: Entry COc1cccc(N2C(=O)CN(Cc3ccccc3)C2=S)c1 please
Response: 0.665

Request: Same thing, different compound: O=C(c1ccc[nH]c1=S)N1CCN(S(=O)(=O)c2ccc(Br)cc2Cl)CC1
Response: -3.23
